Tested on: β-galactosidase in CMV-LacZ C2C12 myotubes
PROTOCOL_DESCRIPTION: CMV-LacZ secondary screen in C2C12 myotubes (β-Gal stabilizing assay)
Type: cell-based, mouse
DETAILS: 40 uM; CMV-LacZ C2C12 myotubes; 96-well format
READOUT: CMV-LACZ in Myotubes (β-galactosidase activity relative to DMSO)
Just the number.

Guide cases for CMV-LACZ in Myotubes (β-galactosidase activity relative to DMSO), answers given:
State the recorded CMV-LACZ in Myotubes (β-galactosidase activity relative to DMSO) for this entry: CNc1nnc(SCC(=O)c2cc(C)n(C3CC3)c2C)s1
0.9483

Consider the molecule O=C(/C(=C(/[O-])c1ccccc1)[n+]1ccccc1)c1ccc([N+](=O)[O-])cc1 and give its measured CMV-LACZ in Myotubes (β-galactosidase activity relative to DMSO).
0.9947

Returns the measured CMV-LACZ in Myotubes (β-galactosidase activity relative to DMSO) for the input molecule. Input: COCCN1C=C(C(=O)OC)C(c2ccccc2Cl)C(C(=O)OC)=C1
0.8355

***
What value of CMV-LACZ in Myotubes (β-galactosidase activity relative to DMSO) has been reported for the following molecule? CCCC(=O)Nc1ccccc1NC(=O)c1ccc(OCC)cc1
0.9387

Reported CMV-LACZ in Myotubes (β-galactosidase activity relative to DMSO) for C[C@H](NS(=O)(=O)c1ccc(Cl)cc1)C(=O)OCC(=O)c1ccc[nH]1 : what is it?
0.8829

Which CMV-LACZ in Myotubes (β-galactosidase activity relative to DMSO) value belongs to CCOc1cc(/C=C2\C(=O)ON=C2c2ccccc2)ccc1OC ?
3.9614

What measured CMV-LACZ in Myotubes (β-galactosidase activity relative to DMSO) goes with S=c1[nH]nc(Cn2cnc3ccccc32)n1-c1ccccc1 ?
0.9526

Consider the molecule shown here: COc1ccc(-c2csc3ncnc(N4CCN(c5ccccc5[N+](=O)[O-])CC4)c23)cc1 What is its recorded CMV-LACZ in Myotubes (β-galactosidase activity relative to DMSO)?
1.65

* * *

Tested on: β-galactosidase in CMV-LacZ C2C12 myoblasts
PROTOCOL_DESCRIPTION: CMV-LacZ secondary screen in C2C12 myoblasts (β-Gal stabilizing assay)
Type: cell-based, mouse
DETAILS: 20 uM; CMV-LacZ C2C12 myoblasts
This listing pairs molecules with measured CMV-LACZ in Myoblasts (β-galactosidase activity relative to DMSO).
Lab note: write the figure by itself, no unit.

Missing value: CMV-LACZ in Myoblasts (β-galactosidase activity relative to DMSO), β-galactosidase in CMV-LacZ C2C12 myoblasts, entry Cc1nnc(-c2ccc(N3CCOCC3)c([N+](=O)[O-])c2)o1 . Fill in?
0.9074

More entries:
Form: Entry = N#CC1=C2SCN(c3ccccc3)CN2C(=O)CC1c1cccs1 (stereo not drawn) | System = β-galactosidase in CMV-LacZ C2C12 myoblasts | CMV-LACZ in Myoblasts (β-galactosidase activity relative to DMSO) = ____
1.0174

Item COc1ccccc1C(=O)OCc1ccc2sc(C)nc2c1 with β-galactosidase in CMV-LacZ C2C12 myoblasts - CMV-LACZ in Myoblasts (β-galactosidase activity relative to DMSO)?
0.9622

Give CMV-LACZ in Myoblasts (β-galactosidase activity relative to DMSO) (β-galactosidase in CMV-LacZ C2C12 myoblasts) of the following molecule: COC(=O)c1cc(S(=O)(=O)NCC2CCN(Cc3ccc(Cl)cc3)CC2)cn1C
0.9359
